details: in acetone, 313.15 K
parameter-measured: solubility (mole fraction)
Could you keep your reply to the number by itself?

What measured solubility (mole fraction) goes with CC(=O)O[C@H]1NC(=O)[C@@H]1[C@@H](C)O[Si](C)(C)C(C)(C)C ?
0.218

----------
details: in chloroform, 333.15 K
parameter-measured: solubility (mole fraction)
// keep it numeric: no unit symbol after the value

I would be grateful if you could share the reported solubility (mole fraction) for CC(=O)O[C@H]1NC(=O)[C@@H]1[C@@H](C)O[Si](C)(C)C(C)(C)C .
0.403

----------
settings: in n-butyl acetate, 323.15 K
parameter-measured: solubility (mole fraction)

Reported solubility (mole fraction) for CC(=O)O[C@H]1NC(=O)[C@@H]1[C@@H](C)O[Si](C)(C)C(C)(C)C : what is it?
0.251

----------
conditions: in ethyl acetate, 298.15 K
parameter-measured: solubility (mole fraction)

Value lookup for solubility (mole fraction); key = CC(=O)O[C@H]1NC(=O)[C@@H]1[C@@H](C)O[Si](C)(C)C(C)(C)C
0.179

----------
conditions: in acetone, 333.15 K
parameter-measured: solubility (mole fraction)

# solubility (mole fraction) lookup, item CC(=O)O[C@H]1NC(=O)[C@@H]1[C@@H](C)O[Si](C)(C)C(C)(C)C
0.259

----------
settings: in toluene, 333.15 K
parameter-measured: solubility (mole fraction)
Give your answer as a number; write no unit.

Quick check: solubility (mole fraction) of CC(=O)O[C@H]1NC(=O)[C@@H]1[C@@H](C)O[Si](C)(C)C(C)(C)C ?
0.265

----------
conditions: in ethanol, 318.15 K
parameter-measured: solubility (mole fraction)

State the recorded solubility (mole fraction) for this entry: CC(=O)O[C@H]1NC(=O)[C@@H]1[C@@H](C)O[Si](C)(C)C(C)(C)C
0.121

----------
conditions: in n-hexane, 293.15 K
parameter-measured: solubility (mole fraction)
Kindly provide the number alone.

Which value of solubility (mole fraction) has been reported for CC(=O)O[C@H]1NC(=O)[C@@H]1[C@@H](C)O[Si](C)(C)C(C)(C)C in the records?
0.00287

----------
details: in n-hexane, 323.15 K
parameter-measured: solubility (mole fraction)
Kindly provide the number alone.

Which value of solubility (mole fraction) has been reported for CC(=O)O[C@H]1NC(=O)[C@@H]1[C@@H](C)O[Si](C)(C)C(C)(C)C in the records?
0.022

----------
conditions: in acetone, 303.15 K
parameter-measured: solubility (mole fraction)
Enter a number only.

Consider the compound shown here: CC(=O)O[C@H]1NC(=O)[C@@H]1[C@@H](C)O[Si](C)(C)C(C)(C)C What is its recorded solubility (mole fraction)?
0.186

----------
details: in toluene, 313.15 K
parameter-measured: solubility (mole fraction)
A bare number is all that is needed in reply.

Look up solubility (mole fraction) for this compound: CC(=O)O[C@H]1NC(=O)[C@@H]1[C@@H](C)O[Si](C)(C)C(C)(C)C
0.163

----------
details: in acetonitrile, 318.15 K
parameter-measured: solubility (mole fraction)
Please state the value as a number alone, without comment.

What value of solubility (mole fraction) has been reported for the following compound? CC(=O)O[C@H]1NC(=O)[C@@H]1[C@@H](C)O[Si](C)(C)C(C)(C)C
0.132

----------
conditions: in chloroform, 323.15 K
parameter-measured: solubility (mole fraction)
Please reply with the value in numeric form only.

# solubility (mole fraction) lookup, item CC(=O)O[C@H]1NC(=O)[C@@H]1[C@@H](C)O[Si](C)(C)C(C)(C)C
0.347

----------
details: in ethanol, 293.15 K
parameter-measured: solubility (mole fraction)
Output: the number by itself.

Find the recorded solubility (mole fraction) belonging to CC(=O)O[C@H]1NC(=O)[C@@H]1[C@@H](C)O[Si](C)(C)C(C)(C)C and report it.
0.0492

----------
conditions: in acetonitrile, 313.15 K
parameter-measured: solubility (mole fraction)
Lab note: jot the number down without any unit.

For the compound shown here, CC(=O)O[C@H]1NC(=O)[C@@H]1[C@@H](C)O[Si](C)(C)C(C)(C)C , give the reported solubility (mole fraction).
0.114

----------
conditions: in THF, 298.15 K
parameter-measured: solubility (mole fraction)
Enter a number only.

Dear colleague, I am looking for the recorded solubility (mole fraction) of the following compound: CC(=O)O[C@H]1NC(=O)[C@@H]1[C@@H](C)O[Si](C)(C)C(C)(C)C
0.242

----------
conditions: in THF, 308.15 K
parameter-measured: solubility (mole fraction)
# respond with the number and nothing more

For CC(=O)O[C@H]1NC(=O)[C@@H]1[C@@H](C)O[Si](C)(C)C(C)(C)C , what is its reported solubility (mole fraction)?
0.264

----------
settings: in toluene, 298.15 K
parameter-measured: solubility (mole fraction)
The answer should be written as a number, with no unit following it.

Requested read-out: solubility (mole fraction). Entry: CC(=O)O[C@H]1NC(=O)[C@@H]1[C@@H](C)O[Si](C)(C)C(C)(C)C
0.096

----------
details: in THF, 293.15 K
parameter-measured: solubility (mole fraction)
Reply briefly: the number, and no unit.

Look up solubility (mole fraction) for this molecule: CC(=O)O[C@H]1NC(=O)[C@@H]1[C@@H](C)O[Si](C)(C)C(C)(C)C
0.238

----------
details: in acetonitrile, 328.15 K
parameter-measured: solubility (mole fraction)
Enter the number alone.

Which solubility (mole fraction) is listed for CC(=O)O[C@H]1NC(=O)[C@@H]1[C@@H](C)O[Si](C)(C)C(C)(C)C ?
0.166

----------
settings: in methanol, 298.15 K
parameter-measured: solubility (mole fraction)
Please respond with just the number, no unit label.

# lookup: solubility (mole fraction) of CC(=O)O[C@H]1NC(=O)[C@@H]1[C@@H](C)O[Si](C)(C)C(C)(C)C
0.069

----------
details: in methanol, 333.15 K
parameter-measured: solubility (mole fraction)

Using the record for CC(=O)O[C@H]1NC(=O)[C@@H]1[C@@H](C)O[Si](C)(C)C(C)(C)C , report its solubility (mole fraction).
0.233

----------
conditions: in methanol, 323.15 K
parameter-measured: solubility (mole fraction)
Provide a numeric answer; units are not to be included.

# lookup: solubility (mole fraction) of CC(=O)O[C@H]1NC(=O)[C@@H]1[C@@H](C)O[Si](C)(C)C(C)(C)C
0.161

----------
conditions: in methanol, 313.15 K
parameter-measured: solubility (mole fraction)
# answer = number (no unit)

Item under review: CC(=O)O[C@H]1NC(=O)[C@@H]1[C@@H](C)O[Si](C)(C)C(C)(C)C . Reported solubility (mole fraction)?
0.113

----------
conditions: in cyclohexane, 298.15 K
parameter-measured: solubility (mole fraction)
In your answer, state the number alone without any accompanying words.

Look up solubility (mole fraction): CC(=O)O[C@H]1NC(=O)[C@@H]1[C@@H](C)O[Si](C)(C)C(C)(C)C
0.00408

----------
settings: in ethyl acetate, 333.15 K
parameter-measured: solubility (mole fraction)
Enter a number only.

GET /values?readout=solubility (mole fraction)&item= CC(=O)O[C@H]1NC(=O)[C@@H]1[C@@H](C)O[Si](C)(C)C(C)(C)C
0.356

----------
settings: in toluene, 328.15 K
parameter-measured: solubility (mole fraction)

Can you look up the measured solubility (mole fraction) of CC(=O)O[C@H]1NC(=O)[C@@H]1[C@@H](C)O[Si](C)(C)C(C)(C)C for me?
0.238

----------
details: in n-butyl acetate, 318.15 K
parameter-measured: solubility (mole fraction)

Which solubility (mole fraction) value is on record for CC(=O)O[C@H]1NC(=O)[C@@H]1[C@@H](C)O[Si](C)(C)C(C)(C)C ?
0.221

----------
settings: in chloroform, 318.15 K
parameter-measured: solubility (mole fraction)
Please give the numeric answer without any surrounding text.

Using the record for CC(=O)O[C@H]1NC(=O)[C@@H]1[C@@H](C)O[Si](C)(C)C(C)(C)C , report its solubility (mole fraction).
0.325

----------
conditions: in cyclohexane, 333.15 K
parameter-measured: solubility (mole fraction)
# output: bare number, no unit

Give the measured solubility (mole fraction) of CC(=O)O[C@H]1NC(=O)[C@@H]1[C@@H](C)O[Si](C)(C)C(C)(C)C .
0.0413

----------
conditions: in ethyl acetate, 308.15 K
parameter-measured: solubility (mole fraction)

Request the reported solubility (mole fraction) associated with CC(=O)O[C@H]1NC(=O)[C@@H]1[C@@H](C)O[Si](C)(C)C(C)(C)C
0.216
